Reported pIC50 values follow for various compounds
# TEST TARGET: MMP-1FL (full-length interstitial collagenase) (Homo sapiens, UniProt P03956)
# Sequence (P03956 100-469): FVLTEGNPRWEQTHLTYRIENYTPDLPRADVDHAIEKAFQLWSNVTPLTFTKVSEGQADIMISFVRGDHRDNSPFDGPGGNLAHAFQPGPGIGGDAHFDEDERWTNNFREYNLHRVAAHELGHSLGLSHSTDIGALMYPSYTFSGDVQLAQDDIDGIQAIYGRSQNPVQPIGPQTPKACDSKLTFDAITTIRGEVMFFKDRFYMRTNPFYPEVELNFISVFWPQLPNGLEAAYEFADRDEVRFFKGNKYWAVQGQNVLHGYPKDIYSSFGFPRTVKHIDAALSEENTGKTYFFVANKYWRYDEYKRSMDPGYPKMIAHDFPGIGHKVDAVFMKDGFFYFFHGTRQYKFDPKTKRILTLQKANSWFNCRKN
pIC50: −log10 of the molar value.
QUANTITY MEASURED: pIC50

[[record]]
entry_smiles = "CC1(C)SCCN(S(=O)(=O)c2ccc3c(c2)Cc2ccccc2-3)[C@H]1C(=O)O"
quantity_measured = "pIC50"
reading = 4.64

[[record]]
entry_smiles = "CC1(C)SCCN(S(=O)(=O)c2ccc3oc4cc([N+](=O)[O-])ccc4c3c2)[C@H]1C(=O)O"
quantity_measured = "pIC50"
reading = 4.22

[[record]]
entry_smiles = "CC1(C)SCCN(S(=O)(=O)c2ccc3oc4ccccc4c3c2)[C@H]1C(=O)NO"
quantity_measured = "pIC50"
reading = 7.77

[[record]]
entry_smiles = "CC1(C)SCCN(S(=O)(=O)c2ccc3c(c2)Cc2ccccc2-3)[C@H]1C(=O)NO"
quantity_measured = "pIC50"
reading = 6.85


* * *

# TEST TARGET: MMP-7FL (full-length matrilysin) (Homo sapiens)
# Sequence (P09237 95-267): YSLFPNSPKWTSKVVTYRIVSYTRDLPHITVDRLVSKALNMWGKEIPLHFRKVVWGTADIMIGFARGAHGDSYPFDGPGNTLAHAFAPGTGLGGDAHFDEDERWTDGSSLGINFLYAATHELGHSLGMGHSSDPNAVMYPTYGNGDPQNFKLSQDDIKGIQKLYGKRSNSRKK
# ASSAY DETAILS: Thiopeptolide hydrolysis inhibition assay, MMP-7FL
# Assay type: biochemical
# ASSAY CONDITIONS: thiopeptolide substrate, HEPES pH 7.0, 22° C.
pIC50: −log10 of the molar value.
Reported pIC50 values follow for various compounds
QUANTITY MEASURED: pIC50

[[record]]
entry_smiles = "CC1(C)SCCN(S(=O)(=O)c2ccc3c(c2)Cc2ccccc2-3)[C@H]1C(=O)O"
reading = 4.00

[[record]]
entry_smiles = "CC1(C)SCN(S(=O)(=O)c2ccc3c(c2)oc2ccccc23)[C@@H]1C(=O)O"
reading = 4.00

[[record]]
entry_smiles = "CC1(C)SCCN(S(=O)(=O)c2ccc3oc4ccccc4c3c2)[C@H]1C(=O)NO"
reading = 7.55

[[record]]
entry_smiles = "CC1(C)SCCN(S(=O)(=O)c2ccc3oc4cc(Br)ccc4c3c2)[C@H]1C(=O)O"
reading = 5.92

[[record]]
entry_smiles = "COC(=O)c1ccc2c(c1)oc1ccc(S(=O)(=O)N3CCSC(C)(C)[C@@H]3C(=O)NO)cc12"
reading = 7.54

[[record]]
entry_smiles = "COC(=O)c1ccc2c(c1)oc1ccc(S(=O)(=O)N3CCSC(C)(C)[C@@H]3C(=O)O)cc12"
reading = 5.46


* * *

Entries below carry reported pIC50 on MMP-3CD (catalytic domain of stromelysin-1) (Homo sapiens, UniProt P08254).
Sequence (P08254 100-272 limits assumed): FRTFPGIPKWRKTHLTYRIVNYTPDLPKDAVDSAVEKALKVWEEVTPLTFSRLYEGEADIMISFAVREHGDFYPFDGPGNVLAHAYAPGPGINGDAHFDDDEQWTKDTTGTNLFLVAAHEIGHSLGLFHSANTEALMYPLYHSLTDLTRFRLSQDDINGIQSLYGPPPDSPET
pIC50: −log10 of the molar value.
QUANTITY MEASURED: pIC50

[[record]]
entry_smiles = "COC(=O)c1ccc2c(c1)oc1ccc(S(=O)(=O)N3CCSC(C)(C)[C@@H]3C(=O)NO)cc12"
quantity_measured = "pIC50"
reading = 8.22

[[record]]
entry_smiles = "CC1(C)[C@H](C(=O)NO)N(S(=O)(=O)c2ccc3oc4ccccc4c3c2)CCS1(=O)=O"
quantity_measured = "pIC50"
reading = 8.10

[[record]]
entry_smiles = "CC1(C)SCCN(S(=O)(=O)c2ccc3c(c2)oc2ccccc23)[C@H]1C(=O)NO"
quantity_measured = "pIC50"
reading = 7.96

